Test system: BT-549 breast
assay.protocol: NCI tumour cell line growth inhibition, 48 h
measure.name: TGI

Q: Give reported TGI value for CCN1CCCCC(=N\O)/C(=N/O)CCCC1
Ans: > 100 µM

Q: Give reported TGI value for O=[N+]([O-])c1ccc(Cl)cc1N/N=C/c1cccs1
Ans: > 100 µM

Q: Give reported TGI value for Nc1nc(Nc2ccc3c(c2)CCC(N2CCCC2)CC3)nn1-c1cc2c(nn1)-c1ccccc1CCC2 (stereo not drawn)
Ans: 3.01 µM

Q: Give reported TGI value for O=C(CCC(=O)OCC1OC(O)(CC2OC(CO)C(O)C(O)C2O)C(O)C1O)OCc1ccccc1 (stereo not drawn)
Ans: > 100 µM

Q: Give reported TGI value for CC(CN(C)C)C(=O)/C=C/c1ccc(Cl)c(Cl)c1 (stereo not drawn)
Ans: 4.45 µM

Q: Give reported TGI value for Clc1cccc(N=C/C=C/Nc2cccc(Cl)c2)c1
Ans: 33.2 µM

Q: Give reported TGI value for N#CI1OC(C(F)(F)F)(C(F)(F)F)c2ccccc21
Ans: 40.9 µM

Q: Give reported TGI value for Cc1[nH]nc(C(=O)Nc2n[nH]c3ccccc23)c1[N+](=O)[O-]
Ans: > 100 µM

Q: Give reported TGI value for CC(=O)N1C(OCc2ccccc2)CCN1c1ccccc1 (stereo not drawn)
Ans: > 10 µM

Q: Give reported TGI value for CN1N(c2ccccc2)C(=O)C2=NC=C(C#N)C(=N)C21C (stereo not drawn)
Ans: > 100 µM

Q: Give reported TGI value for CC1(C)CC[C@]2(C(=O)O)CC[C@]3(C)[C@H](CC[C@@H]4[C@@]5(C)CCC(=O)C(C)(C)[C@@H]5CC[C@]43C)[C@H]2[C@H]1OC(=O)C(F)(F)F
Ans: 22.3 µM

Q: Give reported TGI value for COc1cnnc2c(C)c(-c3ccccc3)nn12
Ans: > 100 µM

Q: Give reported TGI value for O=C1/C(=C2\SCC(=O)N2c2ccccc2)SC(=S)N1c1ccccc1
Ans: > 100 µM

Q: Give reported TGI value for COc1cc(/C=C/C(=O)c2cc(OC)c(OC)c(OC)c2)cc(OC)c1OC
Ans: 9.26 µM

Q: Give reported TGI value for CCOC(=O)/C=C1/Nc2cc(F)c(F)cc2NC1=O
Ans: > 100 µM

Q: Give reported TGI value for COc1cc(C2C3=C(N=C4SC(C(C)=O)=C(C)N42)c2ccccc2CC3)cc(OC)c1OC (stereo not drawn)
Ans: > 100 µM

Q: Give reported TGI value for COc1ccc2sc3c(NCCCNCCO)nc4ccccc4c3c(=O)c2c1
Ans: 22.7 µM

Q: Give reported TGI value for CC(C)C[C@H](NC(=O)[C@H](CCc1ccccc1)NC(=O)c1ccc2ccccc2n1)B(O)O
Ans: 0.152 µM

Q: Give reported TGI value for COc1cccc2c1C(=O)c1c(O)c3c(c(O)c1C2=O)C[C@@](O)(/C(C)=N\O)C[C@@H]3OC1CC(N)C(O)C(C)O1 (stereo partly drawn)
Ans: 5.65 µM

Q: Give reported TGI value for C/C(NC(=O)c1ccccc1)=C(/C(=O)c1ccccc1)[C@@H]1OC(C)(C)O[C@@H]1[C@H]1COC(C)(C)O1
Ans: 82.4 µM

Q: Give reported TGI value for CCc1cc2c(oc3c4ccccc4ccc23)c(=O)[nH]1
Ans: > 10 µM

Q: Give reported TGI value for CC12CCC(O)CC1CCC1C2CCC2(C)C(C3=CC(=O)OC3)CCC12 (stereo not drawn)
Ans: > 95.3 µM

Q: Give reported TGI value for CC(C)(CN1CCCCC1)C(=O)/C=C/c1c(Cl)cccc1Cl
Ans: 4.06 µM

Q: Give reported TGI value for NCC(=O)CCC(=O)O
Ans: > 100 µM

Q: Give reported TGI value for O=Cc1cc(O)c(O)c(/C=N/n2c3ccccc3c3ccccc32)c1
Ans: 12.4 µM

Q: Give reported TGI value for COc1cc2c3c(n(C)c(=O)c2cc1OC)-c1cc2c(cc1/C3=C\[C@@H](N)CCCCN)OCO2
Ans: 28.3 µM

Q: Give reported TGI value for CS(=O)(=O)CS(=O)CS(=O)CS(=O)CC(NC(=O)CCC(N)C(=O)O)C(=O)O (stereo not drawn)
Ans: > 100 µM

Q: Give reported TGI value for COc1cc(C2c3cc4c(cc3OC(N3CCOCC3)C2C)OCO4)cc(OC)c1OC(C)=O (stereo not drawn)
Ans: > 100 µM

Q: Give reported TGI value for Cc1cnc2[nH]c(-c3cccc(Cl)c3)cc(=O)c2c1
Ans: > 100 µM

Q: Give reported TGI value for CC(C)C(/C=C/c1ccccc1)=N\NC(=S)NN
Ans: > 100 µM

Q: Give reported TGI value for CCc1nc(N)nc(N)c1-c1ccc(Cl)c(N=NN(C)C)c1
Ans: > 94.8 µM

Q: Give reported TGI value for Cc1ccc(C2(c3ccc(C)c(O)c3C)CCN(C)CC2)c(C)c1O
Ans: > 100 µM

Q: Give reported TGI value for CC1=CC(=O)/C(=C/N2CCNC2=S)C(=O)O1
Ans: > 100 µM

Q: Give reported TGI value for COc1ccc(/C=C/C(c2cc(OC)c(OC)c(OC)c2)n2cncn2)cc1O (stereo not drawn)
Ans: 37.1 µM

Q: Give reported TGI value for CCOC(=O)C12C(=O)CCN1CCc1ccccc1C2C (stereo not drawn)
Ans: > 100 µM

Q: Give reported TGI value for O=C(NC(CO)CO)c1ccc2cc(C(=O)N3CC(CCl)c4ccc([N+](=O)[O-])cc43)[nH]c2c1 (stereo not drawn)
Ans: > 100 µM

Q: Give reported TGI value for Cc1nc2ccc(NCCN(C)C)c3c(=O)c4cc(O)ccc4n1c23
Ans: 19 µM

Q: Give reported TGI value for Nc1ccc(-c2nc3cc(F)ccc3s2)cc1
Ans: > 100 µM
